assay.overview: Toxicity liver stage against HepG2, at 10uM
Assay type: cell-based
Parameters: test concentration 10 uM, cell line HepG2-A16-CD81EGFP
condition.details: human, HepG2-A16-CD81EGFP cells; read-out: INHIBITION
Below is a list of entries, each paired with its recorded cytotoxicity at 10 µM value.
Give just the number in %; leave the unit off.

[
  {
    "compound": "c1cc(CN2CCC3(CC2)COC(COCC2CC2)C3)ccn1 (stereo not given)",
    "endpoint.label": "cytotoxicity at 10 µM",
    "measurement": -0.443
  },
  {
    "compound": "CCN1CCN(C(=O)c2cc(C(F)(F)F)n[nH]2)[C@H]2CS(=O)(=O)C[C@H]21",
    "endpoint.label": "cytotoxicity at 10 µM",
    "measurement": -3.77
  },
  {
    "compound": "O=C(C(CNCc1cccs1)c1ccccc1)N1CCOCC1 (stereo not given)",
    "endpoint.label": "cytotoxicity at 10 µM",
    "measurement": 0.142
  }
]

Inquiry: Entry Cc1ccc(CN2CCC3(CCN(Cc4ccncc4)CC3)CC2)cc1 has what cytotoxicity at 10 µM?
Reply text: 8.4

Inquiry: Now consider CN(C)C(=O)N1CCN(CCCOc2ccccc2)[C@H]2CS(=O)(=O)C[C@H]21 and answer again.
Reply text: 0.666
